# SYSTEM_TESTED: Isocitrate lyase (Candida albicans, UniProt Q9P8Q7)
# Sequence (Q9P8Q7 whole entry): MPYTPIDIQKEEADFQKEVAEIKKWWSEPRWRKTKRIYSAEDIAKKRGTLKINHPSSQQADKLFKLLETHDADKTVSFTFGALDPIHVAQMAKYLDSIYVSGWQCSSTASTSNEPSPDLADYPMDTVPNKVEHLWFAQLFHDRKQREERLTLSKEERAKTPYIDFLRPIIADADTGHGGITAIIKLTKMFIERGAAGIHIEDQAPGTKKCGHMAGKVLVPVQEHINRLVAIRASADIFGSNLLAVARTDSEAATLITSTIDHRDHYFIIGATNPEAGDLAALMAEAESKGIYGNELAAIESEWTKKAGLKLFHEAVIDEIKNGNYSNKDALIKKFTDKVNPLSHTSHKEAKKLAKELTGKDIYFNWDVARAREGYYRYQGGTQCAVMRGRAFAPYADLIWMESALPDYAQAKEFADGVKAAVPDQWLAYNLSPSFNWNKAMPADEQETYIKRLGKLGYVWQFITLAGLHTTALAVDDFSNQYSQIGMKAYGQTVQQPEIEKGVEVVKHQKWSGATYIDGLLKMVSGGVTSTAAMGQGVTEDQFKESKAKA
pIC50: −log10 of the molar value.
pIC50 values for the molecules below.

{"columns": ["MOLECULE", "pIC50"],
 "data": [
  ["O=C1O/C(=C\\c2ccc(O)c(Br)c2)C(c2cc(Br)c(O)c(Br)c2)=C1C(=O)c1cc(Br)c(O)c(Br)c1 [CADIOLIDE D]", 4.96],
  ["O=C1O/C(=C\\c2ccc(O)c(Br)c2)C(c2ccc(O)c(Br)c2)=C1C(=O)c1cc(Br)c(O)c(Br)c1 [CADIOLIDE C]", 4.77],
  ["O=C(O)C1=C(c2ccc(O)c(Br)c2)C(=O)C(c2cc(Br)c(O)c(Br)c2)(c2cc(Br)c(O)c(Br)c2)C1=O", 4.27]
]}

---

MIC values for the molecules below.
# System: Enterococcus faecalis
# ASSAY_NAME: Antibacterial activity against Enterococcus faecalis ATCC 19433 assessed as reduction in microbial growth
# Format: functional
EXPERIMENTAL_ENDPOINT: MIC (µg/mL)

{"columns": ["MOLECULE", "EXPERIMENTAL_ENDPOINT", "BOUND_SIGN", "NUMERIC_RESULT"],
 "data": [
  ["COC(=O)C1=C(c2cc(Br)c(O)c(Br)c2)C(=O)[C@](c2ccc(O)c(Br)c2)(c2cc(Br)c(O)c(Br)c2)C1=O", "MIC", ">", 128],
  ["COc1ccc(/C=C2\\OC(=O)C([C@@H](O)c3cc(Br)c(OC)c(Br)c3)=C2c2cc(Br)c(O)c(Br)c2)cc1Br", "MIC", "=", 64],
  ["COc1c(Br)cc([C@H](O)C2=C(c3cc(Br)c(O)c(Br)c3)/C(=C/c3ccc(O)c(Br)c3)OC2=O)cc1Br", "MIC", "=", 32],
  ["O=C1C=C(c2cc(Br)c(O)c(Br)c2)C(=O)C1(c1cc(Br)c(O)c(Br)c1)c1cc(Br)c(O)c(Br)c1", "MIC", ">", 128],
  ["COC(=O)C1=C(c2ccc(O)c(Br)c2)C(=O)[C@](c2ccc(O)c(Br)c2)(c2cc(Br)c(O)c(Br)c2)C1=O", "MIC", ">", 128],
  ["O=C1O/C(=C\\c2cc(Br)c(O)c(Br)c2)C(c2ccc(O)c(Br)c2)=C1C(=O)c1cc(Br)c(O)c(Br)c1 [CADIOLIDE E]", "MIC", ">", 128],
  ["COc1c(Br)cc([C@H](O)C2=C(c3ccc(O)c(Br)c3)/C(=C/c3cc(Br)c(O)c(Br)c3)OC2=O)cc1Br", "MIC", "=", 8],
  ["COC(=O)C1=C(c2cc(Br)c(O)c(Br)c2)C(=O)C(c2cc(Br)c(O)c(Br)c2)(c2cc(Br)c(O)c(Br)c2)C1=O", "MIC", "=", 64],
  ["COC(=O)C1=C(c2cc(Br)c(O)c(Br)c2)[C@](OC)(c2ccc(O)c(Br)c2)O[C@@]1(C(=O)OC)c1cc(Br)c(O)c(Br)c1", "MIC", "=", 8],
  ["COc1ccc(C[C@@]2(O)OC(=O)C([C@@H](O)c3cc(Br)c(OC)c(Br)c3)=C2c2cc(Br)c(O)c(Br)c2)cc1Br", "MIC", "=", 64],
  ["COC(=O)C1=C(c2cc(Br)c(O)c(Br)c2)[C@](OC)(c2cc(Br)c(O)c(Br)c2)O[C@@]1(C(=O)OC)c1cc(Br)c(O)c(Br)c1", "MIC", ">", 128],
  ["O=C1O/C(=C\\c2cc(Br)c(O)c(Br)c2)C(c2cc(Br)c(O)c(Br)c2)=C1C(=O)c1cc(Br)c(O)c(Br)c1 [CADIOLIDE B]", "MIC", ">", 128],
  ["COC(=O)C1=C(c2cc(Br)c(O)c(Br)c2)C(=O)[C@](OC)(c2ccc(O)c(Br)c2)O[C@]1(OC)c1cc(Br)c(O)c(Br)c1", "MIC", ">", 128],
  ["O=C1O/C(=C\\c2ccc(O)c(Br)c2)C(c2ccc(O)c(Br)c2)=C1C(=O)c1cc(Br)c(O)c(Br)c1 [CADIOLIDE C]", "MIC", ">", 128]
]}

---

# SYSTEM_TESTED: UniProt:Q9S446
# Sequence (Q9S446 whole entry): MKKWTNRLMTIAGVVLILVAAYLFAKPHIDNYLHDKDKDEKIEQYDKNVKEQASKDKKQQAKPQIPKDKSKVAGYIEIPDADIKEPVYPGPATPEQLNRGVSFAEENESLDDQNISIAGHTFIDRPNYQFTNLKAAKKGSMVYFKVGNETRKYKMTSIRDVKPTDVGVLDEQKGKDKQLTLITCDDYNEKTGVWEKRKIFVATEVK
IC50 values for the compounds below.
EXPERIMENTAL_ENDPOINT: IC50

{"columns": ["SMILES_CODE", "RESULT"],
 "data": [
  ["COC(=O)C1=C(c2cc(Br)c(O)c(Br)c2)[C@](OC)(c2ccc(O)c(Br)c2)O[C@@]1(C(=O)OC)c1cc(Br)c(O)c(Br)c1", "> 145 µM"],
  ["COC(=O)C1=C(c2cc(Br)c(O)c(Br)c2)[C@](OC)(c2cc(Br)c(O)c(Br)c2)O[C@@]1(C(=O)OC)c1cc(Br)c(O)c(Br)c1", "> 133 µM"],
  ["COc1ccc(C[C@@]2(O)OC(=O)C([C@@H](O)c3cc(Br)c(OC)c(Br)c3)=C2c2cc(Br)c(O)c(Br)c2)cc1Br", "> 153 µM"]
]}

---

# SYSTEM_TESTED: Sortase A (Staphylococcus aureus)
# Sequence (Q9S446 whole entry): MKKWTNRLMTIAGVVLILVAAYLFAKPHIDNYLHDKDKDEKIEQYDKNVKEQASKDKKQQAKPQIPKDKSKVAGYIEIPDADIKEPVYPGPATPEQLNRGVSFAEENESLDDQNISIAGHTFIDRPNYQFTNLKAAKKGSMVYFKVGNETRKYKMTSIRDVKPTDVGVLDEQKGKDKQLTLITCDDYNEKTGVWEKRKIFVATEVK
# ASSAY_NAME: Inhibition of Staphylococcus aureus sortase A
IC50 values for the compounds below.
EXPERIMENTAL_ENDPOINT: IC50 (µM)

{"columns": ["COMPOUND", "READOUT_UNIT", "BOUND_SIGN", "NUMERIC_RESULT"],
 "data": [
  ["COc1c(Br)cc([C@H](O)C2=C(c3ccc(O)c(Br)c3)/C(=C/c3cc(Br)c(O)c(Br)c3)OC2=O)cc1Br", "µM", ">", 159],
  ["O=C1O/C(=C\\c2cc(Br)c(O)c(Br)c2)C(c2ccc(O)c(Br)c2)=C1C(=O)c1cc(Br)c(O)c(Br)c1 [CADIOLIDE E]", "µM", ">", 162],
  ["O=C1O/C(=C\\c2ccc(O)c(Br)c2)C(c2cc(Br)c(O)c(Br)c2)=C1C(=O)c1cc(Br)c(O)c(Br)c1 [CADIOLIDE D]", "µM", "=", 34],
  ["COC(=O)C1=C(c2cc(Br)c(O)c(Br)c2)C(=O)[C@](OC)(c2ccc(O)c(Br)c2)O[C@]1(OC)c1cc(Br)c(O)c(Br)c1", "µM", ">", 145],
  ["COC(=O)C1=C(c2cc(Br)c(O)c(Br)c2)C(=O)[C@](c2ccc(O)c(Br)c2)(c2cc(Br)c(O)c(Br)c2)C1=O", "µM", "=", 70],
  ["O=C1C=C(c2cc(Br)c(O)c(Br)c2)C(=O)C1(c1cc(Br)c(O)c(Br)c1)c1cc(Br)c(O)c(Br)c1", "µM", "=", 88],
  ["COC(=O)C1=C(c2cc(Br)c(O)c(Br)c2)C(=O)C(c2cc(Br)c(O)c(Br)c2)(c2cc(Br)c(O)c(Br)c2)C1=O", "µM", "=", 67],
  ["COc1c(Br)cc([C@H](O)C2=C(c3cc(Br)c(O)c(Br)c3)/C(=C/c3ccc(O)c(Br)c3)OC2=O)cc1Br", "µM", ">", 159],
  ["O=C1O/C(=C\\c2ccc(O)c(Br)c2)C(c2ccc(O)c(Br)c2)=C1C(=O)c1cc(Br)c(O)c(Br)c1 [CADIOLIDE C]", "µM", "=", 59],
  ["COC(=O)C1=C(c2ccc(O)c(Br)c2)C(=O)[C@](c2ccc(O)c(Br)c2)(c2cc(Br)c(O)c(Br)c2)C1=O", "µM", "=", 102],
  ["O=C1C=C(c2cc(Br)c(O)c(Br)c2)/C(=C/c2cc(Br)c(O)c(Br)c2)O1 [RUBROLIDE A]", "µM", "=", 216],
  ["COc1ccc2cc3[n+](cc2c1OC)CCc1cc2c(cc1-3)OCO2 [BERBERINE CHLORIDE]", "µM", "=", 102],
  ["O=C(O)C1=C(c2ccc(O)c(Br)c2)C(=O)C(c2cc(Br)c(O)c(Br)c2)(c2cc(Br)c(O)c(Br)c2)C1=O", "µM", ">", 159],
  ["O=C1O/C(=C\\c2cc(Br)c(O)c(Br)c2)C(c2cc(Br)c(O)c(Br)c2)=C1C(=O)c1cc(Br)c(O)c(Br)c1 [CADIOLIDE B]", "µM", "=", 103],
  ["COc1ccc(/C=C2\\OC(=O)C([C@@H](O)c3cc(Br)c(OC)c(Br)c3)=C2c2cc(Br)c(O)c(Br)c2)cc1Br", "µM", ">", 156]
]}
